Conditions: in ethyl acetate, 298.15 K
Observed property: solubility (mole fraction)

                            chemical_smiles           observed_property  value_measured
0  Cc1ccc(Nc2nccc(N(C)c3ccc4c(C)n(C)nc4c3)n2)cc1S(N)(=O)=O  solubility (mole fraction)        1.04e-05

----------
Conditions: in ethanol, 303.15 K
Observed property: solubility (mole fraction)

>>> df
                            chemical_smiles           observed_property  value_measured
0  Cc1ccc(Nc2nccc(N(C)c3ccc4c(C)n(C)nc4c3)n2)cc1S(N)(=O)=O  solubility (mole fraction)        1.61e-05

----------
Conditions: in ethyl acetate, 323.15 K
Observed property: solubility (mole fraction)

>>> df
                            chemical_smiles  value_measured
0  Cc1ccc(Nc2nccc(N(C)c3ccc4c(C)n(C)nc4c3)n2)cc1S(N)(=O)=O        3.06e-05

----------
Settings: in ethanol, 298.15 K
Observed property: solubility (mole fraction)

>>> df
                            chemical_smiles  value_measured
0  Cc1ccc(Nc2nccc(N(C)c3ccc4c(C)n(C)nc4c3)n2)cc1S(N)(=O)=O        1.27e-05

----------
Conditions: in isopropanol, 288.15 K
Observed property: solubility (mole fraction)

                            chemical_smiles  value_measured
0  Cc1ccc(Nc2nccc(N(C)c3ccc4c(C)n(C)nc4c3)n2)cc1S(N)(=O)=O        9.43e-06

----------
Conditions: in ethanol, 318.15 K
Observed property: solubility (mole fraction)

                            chemical_smiles           observed_property  value_measured
0  Cc1ccc(Nc2nccc(N(C)c3ccc4c(C)n(C)nc4c3)n2)cc1S(N)(=O)=O  solubility (mole fraction)        2.85e-05

----------
Conditions: in ethyl acetate, 303.15 K
Observed property: solubility (mole fraction)

>>> df
                            chemical_smiles  value_measured
0  Cc1ccc(Nc2nccc(N(C)c3ccc4c(C)n(C)nc4c3)n2)cc1S(N)(=O)=O        1.31e-05

----------
Conditions: in ethanol, 323.15 K
Observed property: solubility (mole fraction)

>>> print(df.to_string())
                            chemical_smiles  value_measured
0  Cc1ccc(Nc2nccc(N(C)c3ccc4c(C)n(C)nc4c3)n2)cc1S(N)(=O)=O        3.41e-05

----------
Conditions: in isopropanol, 303.15 K
Observed property: solubility (mole fraction)

>>> df
                            chemical_smiles  value_measured
0  Cc1ccc(Nc2nccc(N(C)c3ccc4c(C)n(C)nc4c3)n2)cc1S(N)(=O)=O        1.86e-05

----------
Details: in ethyl acetate, 313.15 K
Observed property: solubility (mole fraction)

                            chemical_smiles           observed_property  value_measured
0  Cc1ccc(Nc2nccc(N(C)c3ccc4c(C)n(C)nc4c3)n2)cc1S(N)(=O)=O  solubility (mole fraction)           2e-05

----------
Conditions: in isopropanol, 318.15 K
Observed property: solubility (mole fraction)

>>> print(df.to_string())
                            chemical_smiles  value_measured
0  Cc1ccc(Nc2nccc(N(C)c3ccc4c(C)n(C)nc4c3)n2)cc1S(N)(=O)=O        3.25e-05

----------
Details: in ethyl acetate, 288.15 K
Observed property: solubility (mole fraction)

>>> print(df.to_string())
                            chemical_smiles           observed_property  value_measured
0  Cc1ccc(Nc2nccc(N(C)c3ccc4c(C)n(C)nc4c3)n2)cc1S(N)(=O)=O  solubility (mole fraction)        6.17e-06

----------
Settings: in ethyl acetate, 308.15 K
Observed property: solubility (mole fraction)

                            chemical_smiles  value_measured
0  Cc1ccc(Nc2nccc(N(C)c3ccc4c(C)n(C)nc4c3)n2)cc1S(N)(=O)=O        1.63e-05

----------
Settings: in ethanol, 293.15 K
Observed property: solubility (mole fraction)

In [3]: df
Out[3]:
                            chemical_smiles  value_measured
0  Cc1ccc(Nc2nccc(N(C)c3ccc4c(C)n(C)nc4c3)n2)cc1S(N)(=O)=O        1.01e-05
